# Tested on: E. multilocularis metacestode vesicles
# assay.overview: Phosphoglucose isomerase (PGI) release assay (damage-marker release) on metacestode vesicles
# Type: cell-based, Echinococcus multilocularis
# condition.label: overview screen, 10 μM, singlets, 5 days, relative to 0.1 % Triton X-100, DMSO subtracted
measurement.kind: PGI d5 (relative PGI release) (%)
One number for each entry, in %.

Inquiry: Fill in the blank: the reported PGI d5 (relative PGI release) of O=[N+]([O-])c1cn2c(n1)OC[C@@H](OCc1ccc(OC(F)(F)F)cc1)C2 is ____.
Reply text: -1.0977

Inquiry: Now this one: O=S(=O)(NCB(O)O)c1ccc(-c2nnn[nH]2)cc1C(F)(F)F
Reply text: -0.527

Inquiry: Another: O=C(NCc1ccccc1Cl)c1cnc2ccccc2n1
Reply text: -1.462

Inquiry: Same for CC(N)C12CC3CC(CC(C3)C1)C2 (stereo not shown)
Reply text: 0.08745

Inquiry: Request: CCCCCCCc1[nH]c2ccccc2c(=O)c1O
Reply text: -1.205

Inquiry: CN(C(=O)C1(c2ccc(Cl)cc2)CCC1)c1ccccc1 ?
Reply text: 0.6829

Hello, I would appreciate it if you could give PGI d5 (relative PGI release) for each entry below.
1. Cc1cccc(CC(=O)N[C@H]2CCOC2=O)c1
2. CNC(=O)C1O[C@@H](n2cnc3c(NCc4cccc(I)c4)nc(Cl)nc32)[C@H](O)[C@@H]1O (stereo partly shown)
3. O=C(NC12CC3CC(CC(C3)C1)C2)c1cc2ccccc2[nH]1

Reply text:
1: 1.649; 2: -0.4087; 3: -0.2186

Inquiry: Query: PGI d5 (relative PGI release); subject: Cc1cc(C2CCCCC2)n(O)c(=O)c1
Reply text: -0.5492

###

Record form. Attribute: PGI d12 (relative PGI release). Fill in for each entry.
# System: E. multilocularis metacestode vesicles
# assay.overview: Phosphoglucose isomerase (PGI) release assay (damage-marker release) on metacestode vesicles
# Type: cell-based, Echinococcus multilocularis
# condition.label: overview screen, 10 μM, singlets, 12 days, relative to 0.1 % Triton X-100, DMSO subtracted
Numbers only, in %.

Kindly give each listed record's PGI d12 (relative PGI release).
1. COc1ccc(-n2cnc3cc(NCc4ccco4)ccc32)cc1 [MMV617332]
2. CN1c2ccc(Cl)cc2N(c2ccccc2)C(=O)c2cn(Cc3ccc(CN4CCOCC4)cc3)nc21 [MMV1782222]
3. Cc1ccc(S(=O)(=O)Nc2cccc3cccnc23)cc1 [MMV233495]
4. c1cc(CN2CCCNCCNCCCNCC2)ccc1CN1CCCNCCNCCCNCC1 [MMV1580502]

Reply text:
-0.1496
0.3517
26.0665
2.621

###

# System: E. multilocularis metacestode vesicles
# assay.overview: Phosphoglucose isomerase (PGI) release assay (damage-marker release) on metacestode vesicles
# Format: cell-based, Echinococcus multilocularis
# condition.label: overview screen, 10 μM, singlets, 12 days, relative to 0.1 % Triton X-100, DMSO subtracted
measurement.kind: PGI d12 (relative PGI release) (%)
Numbers only, in %.

Inquiry: GET /values?readout=PGI d12 (relative PGI release)&system=E. multilocularis metacestode vesicles&item= Cl.Nc1nc(-c2ccccc2)nc2c1ncn2[C@@H]1O[C@H](COS(=O)(=O)NC(=O)c2ccccc2O)[C@@H](O)[C@H]1O
Reply text: 11.4821

Inquiry: Next: CCOc1ccc(/C=N/NC(=O)C2CC2c2ccc(C(C)(C)C)cc2)cc1OCC (stereo not shown)
Reply text: 0.3627

Inquiry: Consider next the compound FC(F)(F)Oc1ccc(Nc2ccc3cccc(Cl)c3n2)cc1 in the same way.
Reply text: 18.8065

Then there is this compound:
Inquiry: GET /values?readout=PGI d12 (relative PGI release)&system=E. multilocularis metacestode vesicles&item= Cc1nc(-c2ccc(C3N(C)c4ccc(F)cc4C(=O)N3c3ccccc3)s2)cs1 (stereo not shown)
Reply text: -12.6909

###

# System: E. multilocularis metacestode vesicles
# assay.overview: Phosphoglucose isomerase (PGI) release assay (damage-marker release) on metacestode vesicles
# Format: cell-based, Echinococcus multilocularis
# condition.label: overview screen, 10 μM, singlets, 12 days, relative to 0.1 % Triton X-100, DMSO subtracted
measurement.kind: PGI d12 (relative PGI release) (%)
Give bare numbers, in %.

Please review the following examples before continuing.
Inquiry: For the record O=C(Nc1nnc(-c2ccc(Cl)cc2)o1)c1ccc(F)cc1 , what value of PGI d12 (relative PGI release) is listed for E. multilocularis metacestode vesicles?
Reply text: 9.726

Inquiry: Next up: CC(C)Oc1ccc(-c2nc(-c3cccc4c3CC[C@@H]4NCCO)no2)cc1C#N
Reply text: -18.7012

Inquiry: Proceed to CCC(C)NCC(O)Cn1c2ccc(Cl)cc2c2cc(Cl)ccc21 (stereo not drawn)
Reply text: 70.4859

Hi! Can you tell me PGI d12 (relative PGI release) for each of these compounds?
1. Nc1cc(N)c2nc(-c3ccccc3)c(Nc3ccc(F)cc3)nc2c1
2. Cn1c2ccccc2c(=O)c2c(O)cccc21
3. O=C1[C@H](CC[C@H](O)c2ccc(F)cc2)[C@@H](c2ccc(O)cc2)N1c1ccc(F)cc1
4. CC(=N)N1CC[C@H](SC2=C(C(=O)O)N3C(=O)[C@@H]([C@@H](C)O)[C@H]3C2)C1
5. CN(C(=O)C1(c2ccc(Cl)cc2)CCC1)c1ccccc1
6. COc1ccc(NC(=O)c2cc3ccccn3n2)cc1

Reply text:
-9.136
-0.5737
22.6699
-11.6677
-0.7665
3.37

###

Can you tell me Viability d12 (relative viability) for the items I'm about to list?
# System: E. multilocularis metacestode vesicles
# assay.overview: Metacestode vesicle viability assay (ATP, CellTiter-Glo)
# Format: cell-based, Echinococcus multilocularis
# condition.label: overview screen, 10 μM, singlets, 12 days, relative to DMSO control
Give bare numbers, in %.

Example compounds with recorded Viability d12 (relative viability):
Inquiry: What Viability d12 (relative viability) value was documented for this compound, COC(=O)Nc1nc2cc(Sc3ccccc3)ccc2[nH]1 ?
Reply text: 13.6935

Inquiry: Can you handle C[C@H](NC(CC(=O)c1ccccc1C(F)(F)F)C(=O)O)c1ccccc1 (stereo partly drawn) next?
Reply text: 114.059

# batch size: 5; output Viability d12 (relative viability) per entry
1. O=c1[nH]c(=O)n(Cc2cccc(Oc3ccccc3)c2)cc1Nc1ccccc1
2. CC(C)Oc1ccc(-n2cnc3cc(/C=C\c4ccc(C(C)(C)O)cc4)ccc32)cc1
3. COc1c(NC(=O)[C@H]2CC[C@@H](COc3ccc([N+](=O)[O-])cc3)CC2)c(F)cc2c(=O)c(C(=O)O)cn(C3CC3)c12
4. FC(F)(F)Oc1ccc(Nc2ccc3cccc(Cl)c3n2)cc1
5. COc1ccc(NC(=O)c2cc3ccccn3n2)cc1

Reply text:
1. 211.334
2. 72.1416
3. 49.6807
4. 85.6723
5. 96.2395

State recorded Viability d12 (relative viability) for all listed compounds.
1. NCC(=O)Nc1ccc(-n2nc(C(F)(F)F)cc2-c2ccc3c(ccc4ccccc43)c2)cc1
2. COc1ccc(NS(=O)(=O)c2ccc(Cl)s2)cn1
3. CC(=N)N1CC[C@H](SC2=C(C(=O)O)N3C(=O)[C@@H]([C@@H](C)O)[C@H]3C2)C1
4. NC(=O)[C@@H]1CC[C@@H]2CN1C(=O)N2OS(=O)(=O)O
5. C[Si]1(C)CCN(Cc2cc(-c3ccc(Cl)cc3)n(-c3ccc(Cl)cc3)n2)CC1

Reply text:
1: 75.9823; 2: 78.1001; 3: 19.8723; 4: 46.8418; 5: 93.6293

###

# Test system: E. multilocularis metacestode vesicles
# assay.overview: Phosphoglucose isomerase (PGI) release assay (damage-marker release) on metacestode vesicles
# Format: cell-based, Echinococcus multilocularis
# condition.label: overview screen, 10 μM, singlets, 5 days, relative to 0.1 % Triton X-100, DMSO subtracted
measurement.kind: PGI d5 (relative PGI release)
In your response, put the unit directly after the numeric value.

Inquiry: What value of measured PGI d5 (relative PGI release) is listed for CC#C[C@]1(O)CC[C@H]2[C@@H]3CCC4=CC(=O)CCC4=C3[C@@H](c3ccc(N(C)C)cc3)C[C@@]21C ?
Reply text: -0.9731%

Hi! Can you tell me PGI d5 (relative PGI release) for each of these compounds?
1. Fc1ccc(-n2cc(Cn3c(-c4cccc(F)c4)nc4ccccc43)nn2)cc1
2. COc1cc(C(C(=O)NC2CCCCC2)N(C(=O)Cc2c[nH]c3ccccc23)c2ccc(C(C)C)cc2)cc(OC)c1OC (stereo not shown)
3. Cc1c(CN(C)C(=O)/C=C/c2cnc3c(c2)C(C)(C)C(=O)N3)oc2ccccc12
4. C[C@H]1CC[C@]2(NC1)O[C@H]1C[C@H]3[C@@H]4CC[C@H]5C[C@@H](O)CC[C@]5(C)[C@H]4CC[C@]3(C)[C@H]1[C@@H]2C.Cl
5. O=C(Nc1ccccc1)N(Cc1cc(Br)ccc1O)c1ccc(F)cc1
6. [N-]=[N+]=N[C@H]1C[C@H](n2ccc(=O)[nH]c2=O)O[C@@H]1CO

Reply text:
1. -2.0582%
2. 0.03783%
3. 17.9293%
4. -0.8739%
5. -0.185%
6. 0.5917%
